Quick record: Ki, UniProtKB Q72874.
The figure you give is taken to be in nM; do not add the unit.

>>> experimentalvalue("COc1ccc(CN[C@@H](C(=O)N[C@H](C(=O)NCCc2ccc(O)cc2)C(C)C)[C@H](O)[C@H](Cc2ccccc2)NC(=O)[C@@H](NC(=O)OCc2ccccc2)C(C)C)cc1")
18.2
>>> experimentalvalue("CC(C)[C@H](NC(=O)OCc1ccccc1)C(=O)N[C@@H](Cc1ccccc1)[C@@H](O)[C@@H](NCc1ccccc1)C(=O)N[C@H](C(=O)NCc1ccc(Br)cc1)C(C)C")
15.1
>>> experimentalvalue("CCOC(=O)[C@H](NCc1ccc(Cl)cc1)[C@H](O)[C@H](Cc1ccc(OC)cc1)NC(=O)OC(C)(C)C")
3720
>>> experimentalvalue("CC(C)[C@H](NC(=O)[C@H](SCc1ccccc1)[C@H](O)[C@H](Cc1ccccc1)NC(=O)OC(C)(C)C)C(=O)NCc1ccccc1")
26.9
>>> experimentalvalue("CC(C)[C@H](NC(=O)[C@H](NCc1ccccc1)[C@H](O)[C@H](Cc1ccccc1)NC(=O)[C@@H](NC(=O)OCc1ccccn1)C(C)(C)C)C(=O)NCc1ccccc1")
1.24

Now consider the entry below.
Please give the measured Ki for this compound: COc1ccc(CN[C@@H](C(=O)N[C@H](C(=O)NCc2nc3ccccc3[nH]2)C(C)C)[C@H](O)[C@H](Cc2ccccc2)NC(=O)[C@@H](NC(=O)OCc2nc3cc[nH]cc-3n2)C(C)(C)C)cc1
19.1

###

Entries annotated with measured pKi
molecular target: Human immunodeficiency virus type 1 protease (Human immunodeficiency virus 1, UniProt Q72874)
pKi (log units): -log10 of the concentration in mol/L.

Consider the reported pKi for these molecules:
>>> experimentalvalue("COc1ccc(CN[C@@H](C(=O)N[C@H](C(=O)NCc2ccccc2)C(C)C)[C@H](O)[C@H](Cc2ccccc2)NC(=O)[C@@H](NC(=O)N(C)Cc2nc3ccccc3[nH]2)C(C)C)cc1")
7.99
>>> experimentalvalue("COC(=O)[C@@H](NC(=O)[C@H](NCc1ccccc1)[C@H](O)[C@H](Cc1ccccc1)NC(=O)[C@@H](NC(=O)OCc1ccccc1)C(C)C)C(C)C")
5.96
>>> experimentalvalue("CC(C)[C@H](NC(=O)OCc1ccccc1)C(=O)N[C@@H](Cc1ccccc1)[C@@H](O)[C@@H](NC1CCC(O)CC1)C(=O)N[C@H](C(=O)NCc1ccccc1)C(C)C (stereo in doubt; c)")
5.85
>>> experimentalvalue("CC(C)(C)OC(=O)N[C@@H](Cc1ccccc1)[C@@H](O)[C@@H](NCc1ccc(OCCO)cc1)C(=O)N[C@H]1c2ccccc2CC1O (stereo partly specified)")
7.10
>>> experimentalvalue("CC(C)[C@H](NC(=O)CCCCCNC(=O)OC(C)(C)C)C(=O)N[C@@H](Cc1ccccc1)[C@@H](O)[C@@H](NCc1ccccc1)C(=O)N[C@H](C(=O)NCc1ccccc1)C(C)C")
7.68

Shift focus to the following entry.
# pKi lookup, item CC(C)[C@H](NC(=O)[C@H](NCc1ccccc1)[C@H](O)[C@H](Cc1ccccc1)NC(=O)[C@@H](N)C(C)(C)C)C(=O)NCc1ccccc1
7.04

###

molecular target: Human immunodeficiency virus type 1 protease (Human immunodeficiency virus 1)
Rule: Ki below 0.04 µM gives satisfied, anything at or above gives not satisfied.

Here's what some known entries look like.
>>> labelclass("COc1ccc(C[C@H](NC(=O)OC(C)(C)C)[C@@H](O)[C@@H](NCc2ccc(Cl)cc2)C(=O)N[C@H](C(=O)NCc2nc3ccccc3[nH]2)C(C)C)cc1")
"satisfied"
>>> labelclass("COc1ccc(CN[C@@H](C(=O)N[C@H](C(=O)NCc2nc3cc[nH]cc-3n2)C(C)C)[C@H](O)[C@H](Cc2ccccc2)NC(=O)OC(C)(C)C)cc1")
"satisfied"

A record lists COc1ccc(CN[C@@H](C(=O)N[C@H](C(=O)NCCN2CCOCC2)C(C)C)[C@H](O)[C@H](Cc2ccccc2)NC(=O)[C@@H](NC(=O)OCc2ccccc2)C(C)C)cc1 . Is its Ki below 0.04 µM?
satisfied

Continue with COc1ccc(CN[C@@H](C(=O)N[C@H]2c3ccccc3CC2O)[C@H](O)[C@H](Cc2ccccc2)NC(=O)[C@@H](NC(=O)OCc2ccccc2)C(C)(C)C)cc1 (some centres not stated)
not satisfied

Can you check COc1ccc(CN[C@@H](C(=O)N[C@H](C(=O)NCCc2nc3ccccc3[nH]2)C(C)C)[C@H](O)[C@H](Cc2ccccc2)NC(=O)[C@@H](NC(=O)OCc2ccccc2)C(C)C)cc1 next?
satisfied

Next up: CC(C)[C@H](NC(=O)OCc1ccccc1)C(=O)N[C@@H](Cc1ccccc1)[C@@H](O)[C@@H](NCc1ccc(Cl)cc1)C(=O)N[C@H](C(=O)NCc1ccccn1)C(C)C
satisfied

Query CC(=O)NCc1ccc(CN[C@@H](C(=O)N[C@H]2c3ccccc3CC2O)[C@H](O)[C@H](Cc2ccccc2)NC(=O)OC(C)(C)C)cc1 (some centres not stated) next
not satisfied

And for CC(C)[C@H](NC(=O)[C@H](NCc1ccccc1)[C@H](O)[C@H](Cc1ccccc1)NC(=O)OC(C)(C)C)C(=O)NCc1ccccc1 ?
not satisfied

Next up: CC(C)[C@H](NC(=O)c1ccc2ccccc2n1)C(=O)N[C@@H](Cc1ccccc1)[C@@H](O)[C@@H](NCc1ccccc1)C(=O)N[C@H](C(=O)NCc1ccccn1)C(C)C
not satisfied

CC(C)[C@H](NC(=O)[C@H](NCc1ccccc1)[C@H](O)[C@H](Cc1ccccc1)NC(=O)[C@@H](NC(=O)c1nc2c(F)cccc2[nH]1)C(C)(C)C)C(=O)NCc1ccccc1 , same question.
satisfied

Would you mind doing CC(C)[C@H](NC(=O)OCc1ccccc1)C(=O)N[C@@H](Cc1ccccc1)[C@@H](O)[C@@H](NCc1cccnc1)C(=O)N[C@H](C(=O)NCc1ccccc1)C(C)C as well?
satisfied

Another compound: CCOC(=O)[C@H](NCc1ccc(CNC(=O)c2ccccc2)cc1)[C@H](O)[C@H](Cc1ccccc1)NC(=O)[C@@H](NC(=O)OCc1ccccc1)C(C)C
not satisfied

What do you have for COc1ccc(CN[C@@H](C(=O)N[C@H](C(=O)NCc2ccc(N3NC=CS3)cc2)C(C)C)[C@H](O)[C@H](Cc2ccccc2)NC(=O)[C@@H](NC(=O)OCc2ccccc2)C(C)C)cc1 ?
satisfied

Again, but for COc1ccc(CN[C@@H](C(=O)N[C@H](C(=O)N[C@H](CO)c2ccccc2)C(C)C)[C@H](O)[C@H](Cc2ccccc2)NC(=O)[C@@H](NC(=O)OCc2ccccc2)C(C)C)cc1
satisfied

Try this compound too: COc1cccc(CN[C@@H](C(=O)N[C@H](C(=O)NCc2ccccc2)C(C)C)[C@H](O)[C@H](Cc2ccccc2)NC(=O)[C@@H](NC(=O)OCc2ccccc2)C(C)C)c1
satisfied

Repeat with COc1ccc(CN[C@@H](C(=O)N[C@H](C(=O)NCc2nc3cc[nH]cc-3n2)C(C)C)[C@H](O)[C@H](Cc2ccccc2)NC(=O)[C@@H](NC(=O)OCc2ccccc2)C(C)C)cc1
satisfied

What do you have for COc1ccc(CN[C@@H](C(=O)N[C@H](C(=O)NCCn2ccnc2)C(C)C)[C@H](O)[C@H](Cc2ccccc2)NC(=O)[C@@H](NC(=O)OCc2ccccc2)C(C)C)cc1 ?
satisfied

Try CC(C)(C)OC(=O)N[C@@H](Cc1ccccc1)[C@@H](O)[C@@H](NCc1ccc(CNC(=O)OCc2ccccc2)cc1)C(=O)N[C@H]1c2ccccc2CC1O (some centres not stated) next.
satisfied

Again, but for COc1ccc(CN[C@@H](C(=O)N[C@H](C(=O)NCCNc2ccc([N+](=O)[O-])cn2)C(C)C)[C@H](O)[C@H](Cc2ccccc2)NC(=O)[C@@H](NC(=O)OCc2ccccc2)C(C)C)cc1
satisfied

Record: CC[C@H](C)[C@H](NC(=O)[C@H](NCc1ccccc1)[C@H](O)[C@H](Cc1ccccc1)NC(=O)[C@@H](NC(=O)OCc1ccccc1)C(C)C)C(=O)NCc1ccccc1
not satisfied

Param item: COc1ccc(CN[C@@H](C(=O)N[C@H](C(=O)NCc2nc3ccccc3[nH]2)C(C)C)[C@H](O)[C@H](Cc2ccccc2)NC(=O)[C@H](NC(=O)OCc2nc3cc[nH]cc-3n2)C(C)(C)C)cc1
not satisfied

Input CC(C)[C@H](NC(=O)OCc1ccccc1)C(=O)N[C@@H](Cc1ccccc1)[C@@H](O)[C@@H](NCCc1cc2ccccc2[nH]1)C(=O)N[C@H](C(=O)NCc1ccccc1)C(C)C
not satisfied
